The next entries give measured IC50 for wild-type EGFR kinase (Homo sapiens (Human), UniProt P00533).
Numbers only, in nM.

INSERT INTO measurements (compound, measurement_kind, recorded_number) VALUES
  ('C=CC(=O)N1CCCC(Nc2nc(Nc3ccc(OCCO)cc3)c3c(c2F)CNC3=O)C1 (stereo not shown)', 'IC50', 2750);

Batch lookup, IC50 per entry.
1. C=CC(=O)N1CCCC(Nc2nc(Nc3ccc(N4CCN(C)CC4)cn3)c3c(c2F)CNC3=O)C1 (stereo not shown)
2. C=CC(=O)N1CCC[C@H](Nc2nc(-c3cnn(C)c3)c3c(c2F)CNC3=O)[C@@H]1C
3. C=CC(=O)N1CCC(Nc2nc(Nc3ccc(OCCOC)cc3)c3c(c2F)CNC3=O)C1 (stereo not shown)
4. C=CC(=O)N1CCCC(N(C)c2nc(Nc3ccc(N4CCOCC4)cc3)c3c(c2F)CNC3=O)C1 (stereo not shown)
5. C=CC(=O)N1CCCC(Nc2nc(-c3cnn(C)c3)c3c(c2F)CNC3=O)C1 (stereo not shown) [Compound G-7]
6. C=CC(=O)N1CCCC(Nc2nc(Nc3cnn(C)c3)c3c(c2F)CNC3=O)C1 (stereo not shown) [Compound G-25]

[3850, 6820, 1010, 1590, 3950, 1090]

Batch request: IC50 per item, same order as input.
1. C=CC(=O)N1CC(Nc2nc(Nc3ccc(OCCOC)cc3)c3c(c2F)CNC3=O)C1
2. C=CC(=O)N1CC(Nc2nc(Nc3ccc(N4CCOCC4)cc3)c3c(c2F)CNC3=O)CCC1C (stereo not shown)
3. C=CC(=O)N1CCCC(Nc2nc(Nc3cnn(C4CCS(=O)(=O)CC4)c3)c3c(c2F)CNC3=O)C1 (stereo not shown)
4. C=CC(=O)N1CC2CN(c3nc(Nc4cnn(C)c4)c4c(c3F)CNC4=O)CC2C1 (stereo not shown)
5. C=CC(=O)N1CCCC(Nc2nc(Nc3ccc(C(=O)N4CCOCC4)cc3)c3c(c2F)CNC3=O)C1 (stereo not shown)
6. C=CC(=O)N1CCCC(Nc2nc(Nc3cc(C)ns3)c3c(c2F)CNC3=O)C1 (stereo not shown)

1910
2300
1600
1360
1790
1800

Working through the 8 compounds below one at a time, give IC50 for each.
1. C=CC(=O)N1CCC[C@H](Nc2nc(Nc3ccc(N4CCOCC4)cc3)c3c(c2F)CNC3=O)C1
2. C=CC(=O)N1CCCC(Nc2nc(Nc3ccc(N4CCOCC4C)c(F)c3)c3c(c2F)CNC3=O)C1 (stereo not shown)
3. C=CC(=O)N(C)C1CCN(c2nc(Nc3cnn(C)c3)c3c(c2F)CNC3=O)C1 (stereo not shown)
4. C=CC(=O)N1CCCC(Nc2nc(Nc3ccc(N4CCN(C)CC4)cc3)c3c(c2F)CNC3=O)C1 (stereo not shown)
5. C=CC(=O)N1CCCC(Nc2nc(-c3cnn(C)c3)c3c(c2F)CNC3=O)C1C (stereo not shown)
6. C=CC(=O)NC1CN(c2nc(Nc3ccc(N4CCOCC4)cc3)c3c(c2F)CNC3=O)CC1F (stereo not shown)
7. C=CC(=O)N1CCCC(Nc2nc(Nc3ccc(N4CCOCC4)cc3)c3c(c2F)CNC3=O)C1 (stereo not shown)
8. C=CC(=O)N1CCC[C@@H](N(C)c2nc(-c3cnn(C)c3)c3c(c2F)CNC3=O)C1

1. 4130
2. 5190
3. 1050
4. 4250
5. 6820
6. 1180
7. 4130
8. 6170
